Test system: SNB-19 CNS
Assay: NCI tumour cell line growth inhibition, 48 h
Reported Property: TGI

molecule="COC(=O)C1C(=O)CC2CCCCC21 (stereo not given)" result="> 100 µM"
molecule="C=C1CC2CC[C@@]34CC5O[C@@H]6C(O[C@H]7CC[C@H](CC(=O)OC8C(C)C9OC%10C[C@]%11(C[C@@H]%12O[C@]%13(CC(C)[C@@H]%14O[C@H](C(O)CC(O)CO)C[C@@H]%14O%13)CC(C)[C@@H]%12O%11)OC%10CC9O[C@H]8C[C@H]8OC(CC[C@@H]1O2)C[C@@H](C)C8=C)OC7[C@@H]6O3)[C@H]5O4 (stereo not given in full)" result="1.82 µM"
molecule=CC(C)(C)CC(C)(C)NC(=S)NO result="> 100 µM"
molecule=N=C(N)SCCC(=O)CCSC(=N)N result="> 100 µM"
molecule=Cc1ccc(Oc2ccccc2N)cc1 result="> 100 µM"
molecule="C=C(C)C1CC/C(C)=C/CC[C@]2(C)O[C@@H]2CCC2=CC1OC2=O (stereo not given in full)" result="> 100 µM"
molecule=O=c1cccccc1NCCCCCCCNc1cccccc1=O result="> 100 µM"
molecule="CC(C)(C)C(=O)OCC1OC(N=[N+]=[N-])C(OC(=O)C(C)(C)C)C(OC(=O)C(C)(C)C)C1OC(=O)C(C)(C)C (stereo not given)" result="> 100 µM"
molecule=CC(C)=CCOc1cc(NC(=S)c2ccsc2C)ccc1Cl result="> 100 µM"
molecule="CN(C)CCNC(=O)c1ccc(-c2nc3ccc4[nH]ncc4c3c3c2C2CCC3C2)cc1 (stereo not given)" result="9.81 µM"
molecule=O=C(Sc1c(-c2ccccc2)c(=O)n(-c2ccccc2)c(=S)n1-c1ccccc1)c1cccs1 result="> 100 µM"
molecule="COCC1OC(S(=O)(=O)c2ccccc2)C(O)C(OC)C1OC (stereo not given)" result="> 100 µM"
molecule="CC(=O)OC12c3ccccc3C(c3ccccc31)C1C(=O)N(c3ccccn3)C(=O)C12 (stereo not given)" result="> 100 µM"
molecule=CCN1CCN(c2cc(C)nc(N(CCCNc3ccnc4cc(Cl)ccc34)Cc3ccc4c(c3)OCO4)n2)CC1 result="52 µM"
molecule=COc1ccc(/C=C/C(=O)c2ccc(-n3cc(CN4CCN(c5cc6c(cc5F)c(=O)c(C(=O)O)cn6C5CC5)CC4)nn3)cc2)cc1OC result="66.7 µM"

* * *

System: UACC-257 melanoma
Assay: NCI tumour cell line growth inhibition, 48 h; in the data active = GI50 below about 0.43 µM; inactive = the rest
Possible outcomes: T for active, F for inactive

compound=Cc1cc(Nc2nc(C(=O)Nc3ccccc3)nc3ccccc23)n[nH]1 discrete_label=F
compound=CCn1c(-c2cc3c([nH]c4ccccc43)c(-c3cccc(O)c3)n2)n[nH]c1=S discrete_label=F
compound=C#CCNC(=S)N/N=C(\C)c1ccccn1 discrete_label=T
compound=c1cc(-c2nnc(SSc3ncnc4nc[nH]c34)o2)ccn1 discrete_label=F
compound="CCC(C)Oc1nc2c(c(=O)n(C)c(=O)n2C)n1C (centres undefined)" discrete_label=F
compound="CN(C)CCNC(=O)c1ccc(-c2nc3ccc4[nH]ncc4c3c3c2C2CCC3C2)cc1 (centres undefined)" discrete_label=F
compound=C1=C/COCc2cc(ccc2OCCN2CCCC2)Nc2nccc(n2)-c2ccc(o2)COC/1 discrete_label=F
compound="CN(Cc1ccc(C(F)(F)F)cc1)CC(O)C(=O)Nc1ccc(Cl)cc1 (centres undefined)" discrete_label=F
compound="Cc1nc2ccc(Br)cc2c(=O)n1-c1ccc(NC2OCC(O)C(O)C2O)cc1 (centres undefined)" discrete_label=F

* * *

Test system: UO-31 renal
Test: NCI tumour cell line growth inhibition, 48 h
Reported Property: GI50

molecule="O=C1C2=C(C(=O)c3cnccc31)C1C=CC2CC1 (stereo unspecified)" reported_property=GI50 result="1950 nM"
molecule="CN(C)CCNC(=O)c1ccc(-c2nc3ccc4[nH]ncc4c3c3c2C2CCC3C2)cc1 (stereo unspecified)" reported_property=GI50 result="2030 nM"
molecule=O=C(/C=C/c1ccc(O)c(O)c1)NCc1c[nH]c2ccccc12 reported_property=GI50 result="36900 nM"
molecule=Cc1cc(C)c2c(n1)sc1c(N)ncnc12 reported_property=GI50 result="12900 nM"
molecule=NS(=O)(=O)c1ccc(N=Nc2c(O)[nH]c3ccc(C(=O)NCc4ccncc4)cc23)cc1 reported_property=GI50 result="> 25000 nM"
molecule=COc1ccc(C(=O)c2cc3c(N)c(C(=O)Nc4ccccc4)sc3nc2C)cc1 reported_property=GI50 result="2640 nM"

* * *

Test system: HS 578T breast
Experiment: NCI tumour cell line growth inhibition, 48 h
Where a SMILES comes first, the peptide text is derived from it. [ ]: non-standard residue; d: D form. The star is where a group is joined. Bn2Val = CC(C)[C@@H](C(=O)*)N(Cc1ccccc1)Cc1ccccc1; NMeV = CN[C@H](C(=O)O)C(C)C; X29 = COc1ccc(CN*)c(OC)c1; dNMeA = CN[C@H](C)C(=O)O
Reported Property: TGI

compound="COc1ccc(CNC(=O)[C@@H]2CCCN2C(=O)[C@@H](C)N(C)C(=O)[C@H](C(C)C)N(C)C(=O)[C@@H](NC(=O)[C@H](C(C)C)N(Cc2ccccc2)Cc2ccccc2)C(C)C)c(OC)c1 (Bn2Val-V[NMeV][dNMeA]P-X29)" reported_property=TGI result="> 100 µM"
compound=COC(=O)C12CC(NC(=O)c3csc([C@@H](C[C@H](C(C)C)N(C)C(=O)[C@@H](NC(=O)[C@H]4CCCCN4C)C4CC4)OC(C)=O)n3)(C1)C2 reported_property=TGI result="> 16.7 µM"
compound="CN1N=C(c2ccncc2)OC1c1cccc(C(F)(F)F)c1 (stereo not given)" reported_property=TGI result="> 100 µM"
compound=O=S1(=O)N(Cc2ccccc2)[C@@H](Cc2ccccc2)[C@H](O)[C@H](O)[C@H](Cc2ccccc2)N1Cc1ccccc1 reported_property=TGI result="8.38 µM"
compound=CSc1ncc(Br)c(Sc2nc(N)nc3nc[nH]c23)n1 reported_property=TGI result="> 100 µM"

* * *

System: NCI-H460 lung
Test: NCI tumour cell line growth inhibition, 48 h
Reported Property: TGI

compound="Cc1ccc(S(=O)(=O)NC(=O)NC(CCCCN=C(N)N)C(=O)O)cc1 (centres undefined)" reported_property=TGI result="> 100 µM"
compound=O=C1OC(c2ccccc2)=N/C1=C\c1ccc(Oc2ccc(Cl)c(Cl)c2)cc1 reported_property=TGI result="> 100 µM"
compound="NC(Cc1c[nH]c2cc([N+](=O)[O-])ccc12)C(=O)O (centres undefined)" reported_property=TGI result="> 100 µM"
compound=CN1CCN(Cc2ccc(NC(=O)c3cncc(C#Cc4cnc(N)cc4C#N)c3)cc2C(F)(F)F)CC1 reported_property=TGI result="12.7 µM"
compound="O=C1C2=C(C(=O)c3cnccc31)C1C=CC2CC1 (centres undefined)" reported_property=TGI result="21.7 µM"
compound=O=c1[nH]c(=O)n(COCCO)c2ccsc12 reported_property=TGI result="> 100 µM"
compound="CC12CCCCC1=[N+]([O-])C(C)(C)N2O (centres undefined)" reported_property=TGI result="> 100 µM"
compound="CCOC(=O)C(C)Sc1nnc(COc2ccccc2OC)n1-c1ccccc1 (centres undefined)" reported_property=TGI result="32.2 µM"
compound=COc1cccc(CN(C)c2ccc(CO)c(Cl)c2)c1 reported_property=TGI result="21 µM"

* * *

System: HOP-62 NSCLC
Assay: NCI tumour cell line growth inhibition, 48 h
Reported Property: TGI (µM)

compound="C#CCNC(=O)NCCCCC(NC(=O)OCc1ccccc1)C(=O)OCc1ccccc1 (configuration not stated)" units_text=µM sign_qualifier=> result=43
compound=CC(=O)NNc1nc(C)c(C(=O)NNC(=O)C(=O)Nc2cccc(C(C)=O)c2)s1 units_text=µM sign_qualifier== result=68.2
compound="CC1CN(S(=O)(=O)c2oc(-c3ccc(Cl)cc3)nc2C#N)CC(C)O1 (configuration not stated)" units_text=µM sign_qualifier== result=42.2
compound="COC(=O)CC(C(C(=O)OCc1ccccc1)C(C)O)N1C(=O)OC(c2ccccc2)C1c1ccccc1 (configuration not stated)" units_text=µM sign_qualifier=> result=100
compound=Nc1ccc(Nc2cc(=O)[nH]c(=O)[nH]2)cc1 units_text=µM sign_qualifier=> result=100
compound=O=S1(=O)N(Cc2ccccc2)[C@@H](Cc2ccccc2)[C@H](O)[C@H](O)[C@H](Cc2ccccc2)N1Cc1ccccc1 units_text=µM sign_qualifier== result=7.34
compound="COC(=O)C(CCC(=O)CCl)N1C(=O)c2ccccc2C1=O (configuration not stated)" units_text=µM sign_qualifier== result=29
compound="OCC(CCc1ccccc1I)C1=CCC2(CC1)OCCO2 (configuration not stated)" units_text=µM sign_qualifier== result=37.4
compound=Cc1ccc(Sc2ccccc2[N+](=O)[O-])cc1 units_text=µM sign_qualifier=> result=100
compound=Cc1ccc(S(=O)(=O)N=NC=C2c3ccccc3N(O)c3ccccc32)cc1 units_text=µM sign_qualifier== result=18.8
compound=O=[N+]([O-])c1cccc(-c2nc(-c3ccccc3)c(-c3ccccc3)[nH]2)c1 units_text=µM sign_qualifier=> result=100
compound=CCc1ccccc1NC(=O)/C=C/c1ccccc1 units_text=µM sign_qualifier=> result=100
